As a worked illustration, we turn to IC50 data collected for UniProt:P08546.
Sequence (P08546 whole entry): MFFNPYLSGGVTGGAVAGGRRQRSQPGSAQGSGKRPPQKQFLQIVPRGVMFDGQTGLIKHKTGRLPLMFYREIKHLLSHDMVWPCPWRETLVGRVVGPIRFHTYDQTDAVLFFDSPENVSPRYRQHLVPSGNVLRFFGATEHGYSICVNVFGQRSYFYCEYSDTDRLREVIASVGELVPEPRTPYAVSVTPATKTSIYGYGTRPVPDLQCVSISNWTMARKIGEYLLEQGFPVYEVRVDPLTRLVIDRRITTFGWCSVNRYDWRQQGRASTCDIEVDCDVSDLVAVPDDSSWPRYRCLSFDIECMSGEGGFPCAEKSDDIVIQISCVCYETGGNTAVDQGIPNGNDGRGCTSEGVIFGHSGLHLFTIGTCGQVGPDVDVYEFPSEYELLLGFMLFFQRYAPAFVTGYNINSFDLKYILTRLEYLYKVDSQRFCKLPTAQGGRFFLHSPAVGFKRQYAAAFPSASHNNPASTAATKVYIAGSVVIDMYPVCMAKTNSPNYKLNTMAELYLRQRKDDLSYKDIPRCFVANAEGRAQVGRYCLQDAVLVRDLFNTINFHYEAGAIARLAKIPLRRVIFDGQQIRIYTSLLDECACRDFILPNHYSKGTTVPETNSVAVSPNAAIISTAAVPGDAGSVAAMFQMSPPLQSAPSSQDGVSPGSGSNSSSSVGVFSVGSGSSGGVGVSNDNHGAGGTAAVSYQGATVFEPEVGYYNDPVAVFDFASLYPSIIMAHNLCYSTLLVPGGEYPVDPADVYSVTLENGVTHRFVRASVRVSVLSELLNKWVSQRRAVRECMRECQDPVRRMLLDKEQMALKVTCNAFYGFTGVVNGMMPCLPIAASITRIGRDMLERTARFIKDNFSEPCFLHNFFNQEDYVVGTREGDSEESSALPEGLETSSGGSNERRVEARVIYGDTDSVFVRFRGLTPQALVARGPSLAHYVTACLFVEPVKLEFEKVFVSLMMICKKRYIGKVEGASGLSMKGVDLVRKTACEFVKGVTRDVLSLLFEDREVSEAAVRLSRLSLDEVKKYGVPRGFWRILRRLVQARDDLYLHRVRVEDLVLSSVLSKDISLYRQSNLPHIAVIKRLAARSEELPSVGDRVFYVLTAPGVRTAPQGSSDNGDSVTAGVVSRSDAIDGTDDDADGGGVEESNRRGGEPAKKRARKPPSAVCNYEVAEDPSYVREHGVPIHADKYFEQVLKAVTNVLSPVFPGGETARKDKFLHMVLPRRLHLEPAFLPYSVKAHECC

The examples below pair each entry with its known result.
CN1CCN(c2cnc3c(cc(C(=O)NCc4ccc(F)cc4)c(=O)n3CC(=O)N3CC4(CC4)C3)n2)C1=O [Compound 10]
< 1 µM
CC1(F)CN(C(=O)Cn2c(=O)c(C(=O)NCc3ccc(Cl)cc3)cc3nc(N4CCOC4=O)cnc32)C1 [Compound 2]
< 1 µM
CC1(C)CN(C(=O)Cn2c(=O)c(C(=O)NCc3ccc(Cl)cc3)cc3nc(N4CCN(C(C)(C)C(=O)O)C4=O)cnc32)C1 [Compound 43]
< 1 µM
CN(CCN1CCN(c2cnc3c(cc(C(=O)NCc4ccc(Cl)cc4)c(=O)n3CC(=O)N3CC(C)(F)C3)n2)C1=O)S(C)(=O)=O [Compound 24]
> 1 µM
CC(=O)N(C)CCN1CCN(c2cnc3c(cc(C(=O)NCc4ccc(Cl)cc4)c(=O)n3CC(=O)N3CC(C)(F)C3)n2)C1=O [Compound 22]
< 1 µM

# map each compound to its IC50
1. CN(C)CCN1CCN(c2cnc3c(cc(C(=O)NCc4ccc(Cl)cc4)c(=O)n3CC(=O)N3CC(C)(F)C3)n2)C1=O [Compound 42]
2. CC1(F)CN(C(=O)Cn2c(=O)c(C(=O)NCc3ccc(Cl)cc3)cc3nc(N4CC(=O)NC4=O)cnc32)C1 [Compound 41]
3. CC1(C)CN(C(=O)Cn2c(=O)c(C(=O)NCc3ccc(Cl)cc3)cc3cc(N4CCN(C(C)(C)C(=O)O)C4=O)cnc32)C1 [Compound 45]

Solution:
1. > 1 µM
2. < 1 µM
3. < 1 µM
